Would you mind telling me the reported IC50 of each entry?
system: Daudi human lymphoma cell line; assay: MTT growth inhibition assay, single agents and fixed-ratio combinations with elsamitrucin (Chou-Talalay, CalcuSyn), Daudi; type: cell-based; settings: Homo sapiens, Daudi, average of preliminary single-agent experiments, Daudi; read-out: Average IC50, Dm value
Respond numerically; units are nM and should not be typed.

Request: Item CC(C)C[C@H](NC(=O)[C@H](Cc1ccccc1)NC(=O)c1cnccn1)B(O)O has what recorded IC50?
Result: 4

Request: Item CC(=O)O[C@H]1C(=O)[C@@]2(C)[C@H]([C@H](OC(=O)c3ccccc3)[C@]3(O)C[C@H](OC(=O)[C@H](O)[C@@H](NC(=O)c4ccccc4)c4ccccc4)C(C)=C1C3(C)C)[C@]1(OC(C)=O)CO[C@@H]1C[C@@H]2O has what recorded IC50?
Result: 4

Request: Item CN(Cc1cnc2nc(N)nc(N)c2n1)c1ccc(C(=O)N[C@@H](CCC(=O)O)C(=O)O)cc1 [Methotrexate, methotrexate] has what recorded IC50?
Result: 50

Request: Item O=c1[nH]cc(F)c(=O)[nH]1 has what recorded IC50?
Result: 12200

Request: Item Nc1ccn([C@@H]2O[C@H](CO)[C@@H](O)C2(F)F)c(=O)n1 has what recorded IC50?
Result: 1

Request: Item CO[C@@H]1[C@@H](N)[C@@H](O[C@H]2[C@H](Oc3cccc4c(O)c5c(=O)oc6ccc(C)c7c(=O)oc(c34)c5c67)O[C@H](C)[C@H](O)[C@]2(C)O)O[C@H](C)[C@@H]1O has what recorded IC50?
Result: 33

Request: Item COc1cc([C@@H]2c3cc4c(cc3[C@@H](O[C@@H]3O[C@@H]5CO[C@@H](C)O[C@H]5[C@H](O)[C@H]3O)[C@H]3COC(=O)[C@H]23)OCO4)cc(OC)c1O [Etoposide, etoposide] has what recorded IC50?
Result: 25

Request: Item CC[C@@]1(O)C(=O)OCc2c1cc1n(c2=O)Cc2cc3ccccc3nc2-1 has what recorded IC50?
Result: 10

Request: Item COc1cccc2c1C(=O)c1c(O)c3c(c(O)c1C2=O)C[C@@](O)(C(=O)CO)C[C@@H]3O[C@H]1C[C@H](N)[C@H](O)[C@H](C)O1 has what recorded IC50?
Result: 5

Request: Item O=NN(CCCl)C(=O)NCCCl has what recorded IC50?
Result: 24900

----------
test system: Daudi human lymphoma cell line; experiment: MTT growth inhibition assay, single agents and fixed-ratio combinations with elsamitrucin (Chou-Talalay, CalcuSyn), Daudi; format: cell-based; details: Homo sapiens, Daudi, single agent, ten assays of Table 8; read-out: average Dm
Result Type: IC50 (nM)
Respond numerically; units are nM and should not be typed.

Request: Short answer please: IC50, Daudi human lymphoma cell line, entry CO[C@@H]1[C@@H](N)[C@@H](O[C@H]2[C@H](Oc3cccc4c(O)c5c(=O)oc6ccc(C)c7c(=O)oc(c34)c5c67)O[C@H](C)[C@H](O)[C@]2(C)O)O[C@H](C)[C@@H]1O
Result: 27

----------
system: Daudi human lymphoma cell line; experiment: MTT growth inhibition assay, single agents and fixed-ratio combinations with elsamitrucin (Chou-Talalay, CalcuSyn), Daudi; format: cell-based; settings: Homo sapiens, Daudi, SPA-15 (Daudi-e03), single agent, dilution 1:1.5 (elsamitrucin 1:1.33); read-out: Prism IC50
Would you mind telling me the reported pIC50 of each entry?
// pIC50 here means minus log10 of the molar concentration (mol/L)

Request: Item O=NN(CCCl)C(=O)NCCCl has what recorded pIC50?
Result: 4.68

Request: Item COc1cccc2c1C(=O)c1c(O)c3c(c(O)c1C2=O)C[C@@](O)(C(=O)CO)C[C@@H]3O[C@H]1C[C@H](N)[C@H](O)[C@H](C)O1 has what recorded pIC50?
Result: 8.30

Request: Item O=c1[nH]cc(F)c(=O)[nH]1 has what recorded pIC50?
Result: 4.93

Request: Item CO[C@@H]1[C@@H](N)[C@@H](O[C@H]2[C@H](Oc3cccc4c(O)c5c(=O)oc6ccc(C)c7c(=O)oc(c34)c5c67)O[C@H](C)[C@H](O)[C@]2(C)O)O[C@H](C)[C@@H]1O has what recorded pIC50?
Result: 7.40

----------
tested on: SKMES human non-small cell lung carcinoma cell line; test: MTT growth inhibition assay, single agents and fixed-ratio combinations with elsamitrucin (Chou-Talalay, CalcuSyn), SKMES; type: cell-based; settings: Homo sapiens, SPA-09 (SKMES-e25), single agent, dilution 1:1.5; read-out: Prism IC50
Result Type: pIC50
// pIC50 here means minus log10 of the molar concentration (mol/L)

Request: Item CN(Cc1cnc2nc(N)nc(N)c2n1)c1ccc(C(=O)N[C@@H](CCC(=O)O)C(=O)O)cc1 [Methotrexate, methotrexate] has what recorded pIC50?
Result: 8.07

Request: Item COc1cccc2c1C(=O)c1c(O)c3c(c(O)c1C2=O)C[C@@](O)(C(=O)CO)C[C@@H]3O[C@H]1C[C@H](N)[C@H](O)[C@H](C)O1 has what recorded pIC50?
Result: 7.64

Request: Item O=c1[nH]cc(F)c(=O)[nH]1 has what recorded pIC50?
Result: 5.50

----------
tested on: HT29 human colon carcinoma cell line; assay: MTT growth inhibition assay, single agents and fixed-ratio combinations with elsamitrucin (Chou-Talalay, CalcuSyn), HT29; format: cell-based; details: Homo sapiens, HT-29, SPA-04 (HT29-e22), single agent, dilution 1:1.5; read-out: Prism IC50
Result Type: pIC50
// pIC50 here means minus log10 of the molar concentration (mol/L)

Request: Item CC[C@@]1(O)C(=O)OCc2c1cc1n(c2=O)Cc2cc3ccccc3nc2-1 has what recorded pIC50?
Result: 7.64

Request: Item O=NN(CCCl)C(=O)NCCCl has what recorded pIC50?
Result: 4.14

Request: Item CN(Cc1cnc2nc(N)nc(N)c2n1)c1ccc(C(=O)N[C@@H](CCC(=O)O)C(=O)O)cc1 [Methotrexate, methotrexate] has what recorded pIC50?
Result: 7.74

Request: Item CO[C@@H]1[C@@H](N)[C@@H](O[C@H]2[C@H](Oc3cccc4c(O)c5c(=O)oc6ccc(C)c7c(=O)oc(c34)c5c67)O[C@H](C)[C@H](O)[C@]2(C)O)O[C@H](C)[C@@H]1O has what recorded pIC50?
Result: 7.15

Request: Item COc1cccc2c1C(=O)c1c(O)c3c(c(O)c1C2=O)C[C@@](O)(C(=O)CO)C[C@@H]3O[C@H]1C[C@H](N)[C@H](O)[C@H](C)O1 has what recorded pIC50?
Result: 7.54

Request: Item CC(C)C[C@H](NC(=O)[C@H](Cc1ccccc1)NC(=O)c1cnccn1)B(O)O has what recorded pIC50?
Result: 7.64

Request: Item Nc1ccn([C@@H]2O[C@H](CO)[C@@H](O)C2(F)F)c(=O)n1 has what recorded pIC50?
Result: 8.00

Request: Item CC(=O)O[C@H]1C(=O)[C@@]2(C)[C@H]([C@H](OC(=O)c3ccccc3)[C@]3(O)C[C@H](OC(=O)[C@H](O)[C@@H](NC(=O)c4ccccc4)c4ccccc4)C(C)=C1C3(C)C)[C@]1(OC(C)=O)CO[C@@H]1C[C@@H]2O has what recorded pIC50?
Result: 8.62

Request: Item O=c1[nH]cc(F)c(=O)[nH]1 has what recorded pIC50?
Result: 6.55

Request: Item COc1cc([C@@H]2c3cc4c(cc3[C@@H](O[C@@H]3O[C@@H]5CO[C@@H](C)O[C@H]5[C@H](O)[C@H]3O)[C@H]3COC(=O)[C@H]23)OCO4)cc(OC)c1O [Etoposide, etoposide] has what recorded pIC50?
Result: 6.16

These data points were gathered from patent US20080181971A1.
